System: Fibroblast
protocol: Multiplex assay against human fibroblast
Format: toxicity, cell-based
cond: 12 h, 10 µM, compound concentration 10 uM, replicate 1
assay-readout: Population Pyknosed Nuclei (%)
Numbers only here, please. The scale is %.

CNC[C@H](O)c1ccc(O)c(O)c1 [EPINEPHRINE] = 20

Below: the item to evaluate.
Ask: Retrieve Population Pyknosed Nuclei (%) measured for O=C(O)c1cc2ccccc2c(Cc2c(O)c(C(=O)O)cc3ccccc23)c1O [PAMOIC ACID] and print it.
Result: 11

---

System: Fibroblast
protocol: Multiplex assay against human fibroblast
Assay type: toxicity, cell-based
cond: 48 h, 1 µM, compound concentration 1 uM, replicate 2
Sorting guide: entries reporting Population Mitotic Cells (%) beneath 50% go in the TRUE pile, the rest go in the FALSE pile.

Examples with answers:
CNC[C@H](O)c1ccc(O)c(O)c1 [EPINEPHRINE] = FALSE
Oc1c(CN2CCN(c3ccccn3)CC2)cc(Cl)c2cccnc12 = TRUE

Ask: Lab log: compare recorded Population Mitotic Cells (%) with 50%; is it strictly lower for O=C(NCCO)c1cccc(-c2cc(Nc3ccc(OC(F)(F)F)cc3)ncn2)c1 ?
Result: FALSE

Ask: Lab log: compare recorded Population Mitotic Cells (%) with 50%; is it strictly lower for COc1ccc2c(c1)C(C(=O)N(Cc1ccc(N(C)C)cc1)c1ccc(C(C)C)cc1)CCC2.Cl (centres undefined) ?
Result: TRUE

Ask: Lab log: compare recorded Population Mitotic Cells (%) with 50%; is it strictly lower for CCCN1CCC[C@@H]2Cc3n[nH]cc3C[C@H]21.Cl [QUINPIROLE HYDROCHLORIDE] ?
Result: FALSE

Ask: Lab log: compare recorded Population Mitotic Cells (%) with 50%; is it strictly lower for CC[C@H]1OC(=O)[C@H](C)[C@@H](O[C@H]2C[C@@](C)(OC)[C@@H](O)[C@H](C)O2)[C@H](C)[C@@H](O[C@@H]2O[C@H](C)C[C@H](N(C)C)[C@H]2O)[C@@]2(C)CC(C)=C(O2)[C@H](C)[C@@H](O)[C@]1(C)O ?
Result: TRUE

Ask: Lab log: compare recorded Population Mitotic Cells (%) with 50%; is it strictly lower for O=C1COc2nccc(-c3ccccc3F)c2CN1Cc1cc(C(F)(F)F)cc(C(F)(F)F)c1 ?
Result: FALSE

---

System: U2OS
protocol: Multiplex assay against U2OS
Type: toxicity, cell-based
cond: human, 12 h, 10 µM, compound concentration 10 uM, replicate 2
assay-readout: Population Pyknosed Nuclei (%)

# example entries with known answers
CN(C)CCCc1cc(C(=O)Nc2ccc(-c3ccncc3)cc2)ccc1O.Cl.Cl = 12%
Cc1ccccc1C(=O)Nc1ccc(C(=O)N2CCCC(N(C)C)c3ccccc32)cc1.Cl (stereo not drawn) = 19%
C[C@@H]1C[C@H]2[C@@H]3CCC4=CC(=O)C=C[C@]4(C)[C@@]3(F)[C@@H](O)C[C@]2(C)[C@@]1(O)C(=O)CO = 7%
CN(C)c1ccnc2sc3c(=O)n(N4CCCCCC4)cnc3c12 = 9%
COc1ccc2c(c1)C(C(=O)N(Cc1ccc(N(C)C)cc1)c1ccc(C(C)C)cc1)CCC2.Cl (stereo not drawn) = 23%

Ask: Quote Population Pyknosed Nuclei (%) with test system U2OS for CC(C)(C)c1ccc(S(=O)(=O)Nc2ccc(Cl)cc2C(=O)c2cc[n+]([O-])cc2)cc1
Result: 1%

Ask: Quote Population Pyknosed Nuclei (%) with test system U2OS for Cc1nc2ccc(Oc3ccc(F)cc3)cc2c(=O)n1C[C@H]1CCCN(C(C)C)C1.Cl
Result: 17%

Ask: Quote Population Pyknosed Nuclei (%) with test system U2OS for N#Cc1c(N)nc(SCc2csc(-c3ccc(Cl)cc3)n2)c(C#N)c1-c1ccc(OCCO)cc1
Result: 18%
